Test system: wp2[pKM101]+wp2 uvrA mixed 1:2
measurementProtocol: Ames Test, E. coli
conditionLabel: 200 μM (row printed 0; conc. column shifted)

>  <cpdSmiles>
CC(C)(C)Sc1ccc(NC(=O)Cn2ccnc2)cc1

>  <experimentalTarget>
wp2[pKM101]+wp2 uvrA mixed 1:2

>  <Mean ± SD>
>300 revertant colonies per plate

$$$$
>  <cpdSmiles>
CC(C)c1nccn1CC(=O)Nc1ccc(-c2ccccc2)cc1

>  <experimentalTarget>
wp2[pKM101]+wp2 uvrA mixed 1:2

>  <Mean ± SD>
2 ± 2.82 revertant colonies per plate

$$$$
>  <cpdSmiles>
O=C(Cn1cnc2c1CCCC2)Nc1ccc(-c2ccccc2)cc1

>  <experimentalTarget>
wp2[pKM101]+wp2 uvrA mixed 1:2

>  <Mean ± SD>
0 ± 0 revertant colonies per plate

$$$$
>  <cpdSmiles>
O=C(Cn1ccnc1-c1ccccn1)Nc1ccc(-c2ccccc2)cc1

>  <experimentalTarget>
wp2[pKM101]+wp2 uvrA mixed 1:2

>  <Mean ± SD>
5.5 ± 2.12 revertant colonies per plate

$$$$
>  <cpdSmiles>
Cc1nc2c(c(N3CCCN(Cc4ccccc4)CC3)n1)CCCC2

>  <experimentalTarget>
wp2[pKM101]+wp2 uvrA mixed 1:2

>  <Mean ± SD>
0 ± 0 revertant colonies per plate

$$$$
